Please respond with reported pEC50 for every item in the list.
# system: T1, recombinant human IL-25 protein (human, UniProt Q9H293 33-177)
# T1 construct: Bought (Acro, catalog no: IL5-H4221) for ELISA; also called hIL-25; IL-17E
# T1 sequence: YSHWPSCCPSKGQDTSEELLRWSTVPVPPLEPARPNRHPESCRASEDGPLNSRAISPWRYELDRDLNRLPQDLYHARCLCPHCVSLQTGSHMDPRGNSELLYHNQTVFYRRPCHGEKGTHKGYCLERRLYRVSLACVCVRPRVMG
# measurement description: ELISA, IL-25 coated, goat anti-human kappa light chain-HRP detection
Keep it numeric: pEC50 is minus log10 of the concentration in mol/L.

// pEC50 value for IL25Ab3 (antibody, V domains shown, detected with anti-human IgG or anti-human kappa reagents; also called anti-IL-25Ab3; mouse origin of anti-IL-25 specific antibody) VH: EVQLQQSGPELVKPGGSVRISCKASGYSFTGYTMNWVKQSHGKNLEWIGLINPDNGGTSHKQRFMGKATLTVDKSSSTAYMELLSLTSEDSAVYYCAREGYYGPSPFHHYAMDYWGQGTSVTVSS VL: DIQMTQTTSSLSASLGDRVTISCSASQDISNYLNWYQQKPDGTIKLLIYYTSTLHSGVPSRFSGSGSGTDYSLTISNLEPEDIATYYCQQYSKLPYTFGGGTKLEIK : 9.30

Field pEC50 (entry IL25Ab9 (antibody, V domains shown) VH: QVQLVQSGAEVKKPGASVKVSCKASGYSFTGYTMNWVRQAPGQGLEWMGLINPDNGGTSYKQKFQGRVTMTVDKSISTAYMELSRLRSDDTAVYYCAREGYYGPSPFHHYAMDYWGQGTLVTVSS VL: DIQMTQSPSSLSASVGDRVTITCQASQDISNYLNWYQQKPGKAPKLLIYYTSTLHTGVPSRFSGSGSGTDYTFTISSLQPEDIATYYCQQYSKLPYTFGQGTKLEIK ) reads 9.51

pEC50 recorded for this binder, IL25Ab10 (antibody, V domains shown) VH: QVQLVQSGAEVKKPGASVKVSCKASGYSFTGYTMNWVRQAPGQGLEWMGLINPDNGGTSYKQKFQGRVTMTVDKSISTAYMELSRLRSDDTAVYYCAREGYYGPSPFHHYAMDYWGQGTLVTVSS VL: DIQMTQSPSSLSASVGDRVTITCQASQDISNYLNWYQQKPDGTIKLLIYYTSTLHTGVPSRFSGSGSGTDYTFTISSLQPEDIATYYCQQYSKLPYTFGQGTKLEIK , is 9.44

Query IL25Ab6 (antibody, V domains shown) VH: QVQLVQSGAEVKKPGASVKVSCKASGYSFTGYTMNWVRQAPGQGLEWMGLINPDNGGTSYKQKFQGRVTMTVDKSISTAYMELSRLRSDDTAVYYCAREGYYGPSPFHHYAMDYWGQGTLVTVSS VL: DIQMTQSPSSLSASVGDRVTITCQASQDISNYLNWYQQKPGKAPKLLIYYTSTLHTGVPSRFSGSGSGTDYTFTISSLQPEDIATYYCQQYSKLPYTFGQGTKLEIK yields pEC50 of 9.52

Lab note: IL25Ab11 (antibody, IgG1, V domains shown) VH: QVQLVQSGAEVKKPGASVKVSCKASGYSFTGYTMNWVRQAHGKNLEWMGLINPDNGGTSHKQKFQGRVTMTVDKSISTAYMELSRLRSDDTAVYYCAREGYYGPSPFHHYAMDYWGQGTLVTVSS VL: DIQMTQSPSSLSASVGDRVTITCQASQDISNYLNWYQQKPDGTIKLLIYYTSTLHTGVPSRFSGSGSGTDYTLTISSLQPEDIATYYCQQYSKLPYTFGGGTKLEIK gave pEC50 of 9.50

// recorded pEC50 for IL25Ab7 (antibody, IgG1, V domains shown) VH: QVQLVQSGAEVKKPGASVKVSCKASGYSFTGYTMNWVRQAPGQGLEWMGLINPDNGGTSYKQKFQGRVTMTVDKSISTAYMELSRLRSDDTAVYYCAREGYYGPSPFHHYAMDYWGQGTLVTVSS VL: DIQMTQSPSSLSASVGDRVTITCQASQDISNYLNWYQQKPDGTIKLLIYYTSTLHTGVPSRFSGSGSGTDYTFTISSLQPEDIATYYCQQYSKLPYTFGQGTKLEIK : 9.49

These entries and their values trace back to patent US20260242458A1.
